experiment: Cmax in C57BL/6 mouse at 3 mg/kg, po measured upto 24 hrs by LC-MS/MS analysis
Assay type: ADME, organism-based
Design: time < 24 hrs, dose 3 mg/kg, route po
measurement.setup: in vivo
reported.endpoint: Cmax (nM)
State the answer as a number, implicitly in nM.

The value of Cmax measured for the compound "N[C@H](CO)Cn1ccc(-c2ccc(Oc3ncc(-c4cc[nH]n4)cc3F)cc2)n1" turned out to be 443

====

molecules and their reported IC50
measured.on: UniProt:P09960
Sequence (P09960 whole entry): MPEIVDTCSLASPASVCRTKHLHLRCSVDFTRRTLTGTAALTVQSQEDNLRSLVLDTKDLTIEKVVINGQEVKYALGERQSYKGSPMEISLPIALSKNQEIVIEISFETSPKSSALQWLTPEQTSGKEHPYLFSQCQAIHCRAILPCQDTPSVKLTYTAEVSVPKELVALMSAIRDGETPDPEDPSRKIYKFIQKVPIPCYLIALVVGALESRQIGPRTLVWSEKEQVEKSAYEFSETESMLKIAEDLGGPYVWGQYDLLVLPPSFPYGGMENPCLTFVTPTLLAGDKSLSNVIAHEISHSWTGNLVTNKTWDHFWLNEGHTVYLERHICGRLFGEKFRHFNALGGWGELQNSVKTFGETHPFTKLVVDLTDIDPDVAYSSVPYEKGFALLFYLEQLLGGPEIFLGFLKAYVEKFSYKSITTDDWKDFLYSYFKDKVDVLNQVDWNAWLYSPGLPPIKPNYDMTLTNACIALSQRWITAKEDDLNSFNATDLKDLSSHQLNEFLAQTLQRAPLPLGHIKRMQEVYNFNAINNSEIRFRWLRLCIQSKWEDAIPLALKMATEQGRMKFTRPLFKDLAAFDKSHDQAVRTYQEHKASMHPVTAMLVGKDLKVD
experiment: Inhibition of LTA4H (unknown origin)
State the answer as a number, implicitly in nM.

O=C(O)c1ccc(CN2C[C@@H]3C[C@H]2CN3Cc2ccc(Oc3ccc(-c4ncco4)cc3)cc2)cc1 [ACEBILUSTAT]: 3

The record that follows has no IC50 shown yet.
The value of IC50 measured for the molecule "CC(=O)N[C@H]1C[C@H]2CC[C@@H](C1)N2Cc1ccc(Oc2nc3ncccc3s2)cc1" turned out to be 3

====

experiment: in vitro
measurement.setup: dog, MDCK
reported.endpoint: Papp A→B (×10⁻⁶ cm/s)
State the answer as a number, implicitly in ×10⁻⁶ cm/s.

Recorded results for 7 compounds are shown here.
N[C@H](CCO)Cn1nnc(-c2ccc(Oc3ncc(Cl)cc3F)cc2)n1: 21
N[C@H](CO)Cn1nnc(-c2ccc(Oc3ncc(Cl)cc3F)cc2)n1: 28
N[C@@H](CCO)Cn1nnc(-c2ccc(Oc3ncc(Cl)cc3F)cc2)n1: 23
N[C@H](CO)Cc1nc(-c2ccc(Oc3ccc(-c4cc[nH]n4)cn3)cc2)no1: 9
Cc1ccc(Oc2ccc(-c3nnn(CCN)n3)cc2)cc1: 34
N[C@@H](CC(=O)O)Cn1nnc(-c2ccc(Oc3ncc(Cl)cc3F)cc2)n1: 1.8
N[C@@H](CO)Cn1nnc(-c2ccc(Oc3ncc(Cl)cc3F)cc2)n1: 25

The record that follows has no Papp A→B shown yet.
The value of Papp A→B measured for the compound "N[C@H](CO)Cn1ccc(-c2ccc(Oc3ncc(-c4cc[nH]n4)cc3F)cc2)n1" turned out to be 12

====

experiment: Drug concentration in blood of arachidonic acid-induced skin inflammation 129S2/SvPasCrl mouse model at 3 mg/kg, po measured after 4 hrs
Type: ADME, organism-based
measurement.setup: read-out: Ct
reported.endpoint: concentration at 4 h (nM)
State the answer as a number, implicitly in nM.

The value of concentration at 4 h measured for the compound "N[C@H](CO)Cn1ccc(-c2ccc(Oc3ncc(-c4cc[nH]n4)cc3F)cc2)n1" turned out to be 367

====

experiment: AUC (0 to infinity) in Wistar rat at 30 mg/kg, po measured upto 24 hrs by LC-MS/MS analysis
Format: ADME, organism-based
Design: dose 30 mg/kg, time < 24 hrs, route po
measurement.setup: in vivo
reported.endpoint: AUC(0-inf) (µM·h)
State the answer as a number, implicitly in µM·h.

The value of AUC(0-inf) measured for the compound "N[C@H](CO)Cn1ccc(-c2ccc(Oc3ncc(-c4cc[nH]n4)cc3F)cc2)n1" turned out to be 59.2

====

compounds and their reported microsomal CLint
experiment: in vitro
measurement.setup: mouse, liver microsomes
State the answer as a number, implicitly in µL/min/mg.

Cc1ccc(Oc2ccc(-c3nnn(CCN)n3)cc2)cc1: 246
N[C@H](CCO)Cn1nnc(-c2ccc(Oc3ncc(Cl)cc3F)cc2)n1: 145
N[C@H](CO)Cn1ccc(-c2ccc(Oc3ncc(-c4cc[nH]n4)cc3F)cc2)n1: 90

The value of microsomal CLint measured for the compound "N[C@H](CO)Cc1nc(-c2ccc(Oc3ccc(-c4cc[nH]n4)cn3)cc2)no1" turned out to be 29

====

experiment: Solubility of compound in SGF at pH […]
Format: physicochemical
reported.endpoint: solubility (µg/mL)
State the answer as a number, implicitly in µg/mL.

The value of solubility measured for the compound "N[C@H](CO)Cn1ccc(-c2ccc(Oc3ncc(-c4cc[nH]n4)cc3F)cc2)n1" turned out to be 27

====

experiment: Half life in dog at 1 mg/kg, iv measured upto 24 hrs by LC-MS/MS analysis
Type: ADME, organism-based, Canis lupus familiaris
measurement.setup: in vivo
reported.endpoint: half-life (min)
State the answer as a number, implicitly in min.

The value of half-life measured for the compound "N[C@H](CO)Cn1ccc(-c2ccc(Oc3ncc(-c4cc[nH]n4)cc3F)cc2)n1" turned out to be 2400

====

compounds and their reported microsomal CLint
experiment: in vitro
measurement.setup: mouse, liver microsomes

Recorded results for 2 compounds are shown here.
N[C@@H](CO)Cn1nnc(-c2ccc(Oc3ncc(Cl)cc3F)cc2)n1: < 25 µL/min/mg
N[C@H](CO)Cn1nnc(-c2ccc(Oc3ncc(Cl)cc3F)cc2)n1: < 25 µL/min/mg

The record that follows has no microsomal CLint shown yet.
The value of microsomal CLint measured for the compound "N[C@@H](CC(=O)O)Cn1nnc(-c2ccc(Oc3ncc(Cl)cc3F)cc2)n1" turned out to be < 25 µL/min/mg
